Target: HIV-1 protease (Human immunodeficiency virus type 1 group M subtype B, UniProt P04585)
Assay: Inhibition constants against HIV-1 protease, method of Pennington et al.
Format: biochemical
Settings: read-out: Ki
PROPERTY MEASURED: Ki (nM)
# unit: nM | format: bare number

(Q) I'd like to know its Ki. The compound in question is COc1ccc(S(=O)(=O)N(CC2CCCC2)C[C@@H](O)CN(CCc2ccccc2)C(=O)O[C@H]2CCOC2)cc1 [Compound 1001]
(A) 30

----------
Target: UniProt:P04585
Assay: Inhibition constants against HIV-1 protease, method of Pennington et al.
Type: biochemical
Settings: HIV-1 protease; method of Pennington et al.; read-out: Ki
Rule: Ki below 800 nM gives yes (1), anything at or above gives no (0).

Some solved entries appear below for comparison.
>  <COMPOUND>
COc1ccc(S(=O)(=O)N(CCc2ccccc2)CC[C@H](O)CN(CC(C)C)S(=O)(=O)c2ccc(OC)cc2)cc1 [Compound 1035]

>  <CLASSIFICATION>
no (0)

$$$$
>  <COMPOUND>
COc1ccc(S(=O)(=O)N(CC(C)C)C[C@@H](O)CCN(CC(C)C)S(=O)(=O)N(C)C)cc1 [Compound 1034]

>  <CLASSIFICATION>
no (0)

$$$$
>  <COMPOUND>
COc1ccc(S(=O)(=O)N(CC2CCCC2)C[C@@H](O)CN(CCc2ccccc2)C(=O)c2ccccc2)cc1 [Compound 1026]

>  <CLASSIFICATION>
yes (1)

$$$$

(Q) Does CC(C)CN(C[C@@H](O)CCN(CC1CCCC1)S(=O)(=O)c1ccc(O)cc1)S(=O)(=O)c1ccc(O)cc1 [XLV] have Ki strictly under 800 nM?
(A) yes (1)

(Q) Does COc1ccc(S(=O)(=O)N(CC2CCCC2)C[C@@H](O)CN(CCc2ccc(O)cc2)C(=O)O[C@H]2CCOC2)cc1 [Compound 1016] have Ki strictly under 800 nM?
(A) yes (1)

(Q) Does Nc1cccc(S(=O)(=O)N(CC2CCCC2)C[C@@H](O)CN(CCc2ccccc2)C(=O)c2cccnc2)c1 [Compound 1044] have Ki strictly under 800 nM?
(A) yes (1)

----------
Target: UniProt P04585
Assay: Inhibition constants against HIV-1 protease, method of Pennington et al.
Format: biochemical
Conditions: HIV-1 protease; method of Pennington et al.; read-out: Ki
PROPERTY MEASURED: Ki (nM)
# unit: nM | format: bare number

Known results for compounds:
>  <COMPOUND>
COc1ccc(S(=O)(=O)N(CC2CCCC2)C[C@@H](O)CN(CCc2ccccc2)C(=O)Cc2ccccc2)cc1 [Compound 1020]

>  <Ki, nM>
170

$$$$
>  <COMPOUND>
Nc1cccc(S(=O)(=O)N(CC2CCCC2)C[C@@H](O)CN(CCc2ccccc2)C(=O)c2ccncc2)c1 [Compound 1045]

>  <Ki, nM>
14

$$$$
>  <COMPOUND>
COc1ccc(S(=O)(=O)N(CC(C)C)C[C@@H](O)CC(Cc2ccccc2)C(=O)N[C@H]2c3ccccc3C[C@H]2O)cc1 (stereo partly shown) [LII]

>  <Ki, nM>
11

$$$$

(Q) I'd like to know its Ki. The compound in question is CC(C)CN(C[C@@H](O)CN(CCc1ccccc1)C(=O)O[C@H]1CCOC1)S(=O)(=O)c1cccc(N)c1 [Compound 1012]
(A) 200

(Q) I'd like to know its Ki. The compound in question is COc1ccc(S(=O)(=O)N(CC2CCCC2)C[C@@H](O)CN(CCc2cccnc2)C(=O)OCc2cccnc2)cc1 [Compound 1025]
(A) 270

(Q) I'd like to know its Ki. The compound in question is COc1ccc(S(=O)(=O)N(CC(O)CN2CC(c3ccccc3)c3ccccc3C2=O)CC2CCCC2)cc1 (stereo not shown) [Compound 1048]
(A) 3300

(Q) I'd like to know its Ki. The compound in question is COc1ccc(S(=O)(=O)N(CC2CCCC2)C[C@@H](O)CN(CCc2ccccc2)C(=O)OCc2ccccc2)cc1 [Compound 1019]
(A) 20

----------
Target: HIV-1 protease (Human immunodeficiency virus type 1 group M subtype B)
Experiment: Inhibition constants against HIV-1 protease, method of Pennington et al.
Format: biochemical
Settings: HIV-1 protease; method of Pennington et al.; read-out: Ki
pKi: −log10 of the molar value.
# cutoff 7 applies to pKi; >= gives condition met, < gives condition not met

Some solved entries appear below for comparison.
>  <MOLECULE>
CCCN(CC(=O)c1ccccc1)C[C@H](O)CN(CC1CCCC1)S(=O)(=O)c1ccc(OC)cc1 [Compound 1029]

>  <CLASSIFICATION>
condition not met

$$$$
>  <MOLECULE>
O=C(OCc1cccnc1)N(CCc1ccccc1)C[C@H](O)CN(CC1CCCC1)S(=O)(=O)c1ccccc1 [Compound 1023]

>  <CLASSIFICATION>
condition met

$$$$
>  <MOLECULE>
COc1ccc(S(=O)(=O)N(CC(O)CN(CCc2ccccc2)C(=O)[C@H](NC(=O)OCc2ccccc2)C(C)C)CC2CCCC2)cc1 (some centres unmarked) [Compound 1027]

>  <CLASSIFICATION>
condition met

$$$$
>  <MOLECULE>
COc1ccc(S(=O)(=O)N(CC[C@H](O)CN(CC(C)C)S(=O)(=O)c2ccc(OC)cc2)CC2CCCC2)cc1 [LVa]

>  <CLASSIFICATION>
condition not met

$$$$
>  <MOLECULE>
COc1ccc(S(=O)(=O)N(CC2CCCC2)C[C@@H](O)CN(CCCc2ccccc2)C(=O)O[C@H]2CCOC2)cc1 [Compound 1006]

>  <CLASSIFICATION>
condition not met

$$$$

(Q) Confirm if pKi reported for the molecule COc1ccc(S(=O)(=O)N(CC[C@H](O)CN2CCCC[C@H]2C(=O)NC(C)(C)C)CC(C)C)cc1 [XLVIII] is 7 or above.
(A) condition not met

(Q) Confirm if pKi reported for the molecule COc1ccc(S(=O)(=O)N(CC2CCCC2)C[C@@H](O)CN(CCc2ccccc2)C(C)=O)cc1 [Compound 1047] is 7 or above.
(A) condition not met

----------
Target: HIV-1 protease (Human immunodeficiency virus type 1 group M subtype B, UniProt P04585)
Assay: Inhibition constants against HIV-1 protease, method of Pennington et al.
Format: biochemical
Conditions: HIV-1 protease; method of Pennington et al.; read-out: Ki
Listing of recorded Ki by entry.

(Q) I'd like to know its Ki. The compound in question is COc1ccc(S(=O)(=O)N(CC(C)C)C[C@@H](O)CCN(CC2CCCC2)S(=O)(=O)c2cccc(N)c2)cc1
(A) 270 nM

(Q) I'd like to know its Ki. The compound in question is Nc1ccc(S(=O)(=O)N(CC2CCCC2)C[C@@H](O)CN(CCc2ccccc2)C(=O)O[C@H]2CCOC2)cc1
(A) 260 nM

(Q) I'd like to know its Ki. The compound in question is COc1ccc(S(=O)(=O)N(CC(C)C)C[C@@H](O)CCN(CCc2ccccc2)C(=O)O[C@H]2CCOC2)cc1
(A) > 10000 nM

(Q) I'd like to know its Ki. The compound in question is COc1ccc(S(=O)(=O)N(CC[C@H](O)CN(CC(C)C)S(=O)(=O)c2ccc(OC)cc2)CC(C)C)cc1
(A) 400 nM

(Q) I'd like to know its Ki. The compound in question is Nc1cccc(S(=O)(=O)N(CC2CCCC2)C[C@@H](O)CN(CCc2ccccc2)C(=O)O[C@@H]2COC3OCCC32)c1 (stereo partly shown)
(A) 50 nM

(Q) I'd like to know its Ki. The compound in question is Nc1cccc(S(=O)(=O)N(CC2CCCC2)C[C@@H](O)CN(CCc2ccccc2)C(=O)OC2COCOC2)c1
(A) 130 nM

(Q) I'd like to know its Ki. The compound in question is COc1ccc(S(=O)(=O)N(CC2CCCC2)C[C@@H](O)CN(CCC(C)C)C(=O)O[C@H]2CCOC2)cc1
(A) 1200 nM

----------
Biological target: HIV-1 protease (Human immunodeficiency virus type 1 group M subtype B, UniProt P04585)
Assay: Inhibition constants against HIV-1 protease, method of Pennington et al.
Format: biochemical
Settings: HIV-1 protease; method of Pennington et al.; read-out: Ki
PROPERTY MEASURED: Ki (nM)
# unit: nM | format: bare number

>  <COMPOUND>
COc1ccc(S(=O)(=O)N(CC2CCCC2)C[C@@H](O)CN(CCC2CCCCC2)C(=O)O[C@H]2CCOC2)cc1 [Compound 1011]

>  <EXPERIMENTAL RESULT>
110

$$$$
>  <COMPOUND>
COc1ccc(S(=O)(=O)N(CC(C)C)C[C@@H](O)CC(=O)N2CCN(C(=O)OCc3ccccc3)C[C@H]2C(=O)NC(C)(C)C)cc1 [Compound 1031]

>  <EXPERIMENTAL RESULT>
1400

$$$$
>  <COMPOUND>
O=C(O[C@H]1CCOC1)N(CCc1ccccc1)C[C@H](O)CN(CC1CCCC1)S(=O)(=O)c1ccc(O)cc1 [Compound 1007]

>  <EXPERIMENTAL RESULT>
35

$$$$
>  <COMPOUND>
COc1ccc(S(=O)(=O)N(CC2CCCC2)C[C@@H](O)CN(CCc2ccc(O)c(O)c2)C(=O)O[C@H]2CCOC2)cc1 [Compound 1017]

>  <EXPERIMENTAL RESULT>
110

$$$$

(Q) I'd like to know its Ki. The compound in question is COc1ccc(S(=O)(=O)N(CC[C@H](O)CN2CCN(C(=O)OCc3ccccc3)C[C@H]2C(=O)NC(C)(C)C)CC(C)C)cc1 [LXXVI]
(A) 2700
